Assay target: UniProtKB P10980
Sequence (P10980 1-466): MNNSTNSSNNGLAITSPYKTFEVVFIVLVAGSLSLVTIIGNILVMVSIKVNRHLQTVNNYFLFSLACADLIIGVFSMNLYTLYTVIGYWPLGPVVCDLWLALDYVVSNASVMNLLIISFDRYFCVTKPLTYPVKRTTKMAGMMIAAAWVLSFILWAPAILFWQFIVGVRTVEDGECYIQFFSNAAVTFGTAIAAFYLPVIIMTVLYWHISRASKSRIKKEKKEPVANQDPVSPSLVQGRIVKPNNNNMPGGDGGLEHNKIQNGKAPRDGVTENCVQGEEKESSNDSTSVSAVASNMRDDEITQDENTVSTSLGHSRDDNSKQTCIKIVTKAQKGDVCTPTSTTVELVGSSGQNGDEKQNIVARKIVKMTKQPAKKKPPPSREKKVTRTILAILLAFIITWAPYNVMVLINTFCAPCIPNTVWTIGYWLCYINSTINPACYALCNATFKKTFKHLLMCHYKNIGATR
Measured quantity: pKi
As a rule, pKi stands for the negative log10 of the concentration, concentration in M.

Compound | pKi
CCN(CC)CC1CCCCN1CC(=O)N1c2ccccc2C(=O)Nc2cccnc21 (centres unmarked) | 7.10

Problem: Fill in the blank: the reported pKi of CCN(CC)CC1CCCCN1CC(=O)N1c2cc(Cl)ccc2C(=O)Nc2cccnc21 (racemic) is ____.
Result: 7.60

---

Assay target: M2 (Heart) muscarinic receptors (Rattus norvegicus)
Construct: The cerebral cortex, heart and salivary glands were removed, washed and homogenised; from tissue; host or cells: rat heart homogenate (Wistar, Chbb: THOM)
Experiment: Receptor binding test, [3H]NMS, heart (M2)
Design: species or system Male Wistar rats
Details: ratio of Ki M1 (cortex) to Ki M2 (heart)
Collected Selectivity ratio (M1 /M2) values appear next to each entry.
Output: the number by itself.

Molecule | Numeric value
CCN(CCCC1CCN(CC(=O)N2c3ccccc3C(=O)Nc3cccnc32)CC1)C(=O)C(C)(C)C | 14
O=C1Nc2cccnc2N(C(=O)N2CCCC(CCCN3CCCCC3)C2)c2ccccc21 (centres unmarked) | 6.5

Problem: Give its Selectivity ratio (M1 /M2) value. Item: CN(CCC1CCCCCN1C)CC(=O)N1c2ccccc2C(=O)Nc2cccnc21 (centres unmarked)
Result: 5.3

Problem: Item: `CCCC(C)(C)C(=O)N(CC)CCCC1CCN(CC(=O)N2c3ccccc3C(=O)Nc3cccnc32)CC1`
Result: 10

Problem: What do you have for `CCCC(C)(C)C(=O)N(CC)CCCC1CCN(CC(=O)N2c3ccc(Cl)cc3C(=O)Nc3cccnc32)CC1` ?
Result: 35

---

Assay target: M2 (Heart) muscarinic receptors (Rattus norvegicus)
Construct: The cerebral cortex, heart and salivary glands were removed, washed and homogenised; from tissue; host or cells: rat heart homogenate (Wistar, Chbb: THOM)
Experiment: Receptor binding test, [3H]NMS, heart (M2)
Parameters: species or system Male Wistar rats
Details: ratio of Ki M1 (cortex) to Ki M2 (heart)
Collected Selectivity ratio (M1 /M2) values appear next to each entry.

Here's what some known entries look like.
Molecule | Result
CCN(CCCC1CCN(CC(=O)N2c3ccccc3C(=O)Nc3cccnc32)CC1)C(=O)C(C)(C)CC | 20
O=C1Nc2cccnc2N(C(=O)CCC#CCN2CCCCC2)c2ccccc21 | 6.6

Problem: # lookup: Selectivity ratio (M1 /M2) of `CCN(CCCC1CCN(CC(=O)N2c3ccc(C)cc3C(=O)Nc3cccnc32)CC1)C(=O)C(C)(C)CC`
Result: 24

Problem: Try this molecule next: CN(CCC1CCCN1C)CC(=O)N1c2ccccc2C(=O)Nc2cccnc21 (centres unmarked)
Result: 2.4

Problem: Then what about the molecule `CCCC(C)(C)C(=O)N(CC)CCCCC1CCN(CC(=O)N2c3ccccc3C(=O)Nc3cccnc32)CC1` ?
Result: 13

Problem: Then what about the molecule `CCN(CCCC1CCN(CC(=O)N2c3ccc(C)cc3C(=O)Nc3cccnc32)CC1)C(=O)C(C)(C)C` ?
Result: 10

Problem: Try this molecule too: `Cc1scc2c1N(C(=O)CCC#CCN1CCCCCC1)c1ccccc1NC2=O`
Result: 4.6

Problem: Another molecule to look at: CCN(CC)CC1COCCN1CCCC(=O)N1c2ccccc2C(=O)Nc2cccnc21 (centres unmarked)
Result: 2.5

---

Listing of recorded Ki by entry.
Assay target: M1 -receptors of the cortex (Rattus norvegicus)
Construct: The cerebral cortex, heart and salivary glands were removed, washed and homogenised; from tissue; host or cells: rat cerebral cortex homogenate (Wistar, Chbb: THOM)
Sequence (P08482 whole entry): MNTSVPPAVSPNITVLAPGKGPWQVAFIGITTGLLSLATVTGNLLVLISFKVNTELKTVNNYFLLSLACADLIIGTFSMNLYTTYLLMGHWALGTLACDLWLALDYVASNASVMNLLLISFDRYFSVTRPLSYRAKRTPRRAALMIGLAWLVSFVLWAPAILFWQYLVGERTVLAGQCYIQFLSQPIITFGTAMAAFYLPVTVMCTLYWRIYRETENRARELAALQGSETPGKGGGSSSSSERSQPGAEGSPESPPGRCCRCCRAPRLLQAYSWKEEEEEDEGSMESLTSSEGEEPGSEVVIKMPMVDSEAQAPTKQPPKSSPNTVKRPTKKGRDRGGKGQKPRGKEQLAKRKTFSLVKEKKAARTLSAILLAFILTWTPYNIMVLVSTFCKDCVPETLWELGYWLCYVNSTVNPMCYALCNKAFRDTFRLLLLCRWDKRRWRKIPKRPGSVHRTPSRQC
Experiment: Receptor binding test, [3H]pirenzepine, cerebral cortex (M1)
Design: species or system Male Wistar rats
Details: in vitro, 1 nM [3H]pirenzepine, 90 minutes

Molecule | Assay target | Ki
CCN(CC)CC1CCCCN1CC(=O)N1c2cc(Cl)ccc2C(=O)Nc2cccnc21 (racemic) | M1 -receptors of the cortex (Rattus norvegicus) | 126 nM

# context switch: different molecule, same Ki
Problem: Recorded Ki for CCN(CC)CC1CCCCN1CC(=O)N1c2ccccc2C(=O)Nc2cccnc21 (centres unmarked) , please?
Result: 500 nM

---

Assay target: M3 (Submandibular gland) muscarinic receptors (Rattus norvegicus, UniProt P08483)
Sequence (P08483 whole entry): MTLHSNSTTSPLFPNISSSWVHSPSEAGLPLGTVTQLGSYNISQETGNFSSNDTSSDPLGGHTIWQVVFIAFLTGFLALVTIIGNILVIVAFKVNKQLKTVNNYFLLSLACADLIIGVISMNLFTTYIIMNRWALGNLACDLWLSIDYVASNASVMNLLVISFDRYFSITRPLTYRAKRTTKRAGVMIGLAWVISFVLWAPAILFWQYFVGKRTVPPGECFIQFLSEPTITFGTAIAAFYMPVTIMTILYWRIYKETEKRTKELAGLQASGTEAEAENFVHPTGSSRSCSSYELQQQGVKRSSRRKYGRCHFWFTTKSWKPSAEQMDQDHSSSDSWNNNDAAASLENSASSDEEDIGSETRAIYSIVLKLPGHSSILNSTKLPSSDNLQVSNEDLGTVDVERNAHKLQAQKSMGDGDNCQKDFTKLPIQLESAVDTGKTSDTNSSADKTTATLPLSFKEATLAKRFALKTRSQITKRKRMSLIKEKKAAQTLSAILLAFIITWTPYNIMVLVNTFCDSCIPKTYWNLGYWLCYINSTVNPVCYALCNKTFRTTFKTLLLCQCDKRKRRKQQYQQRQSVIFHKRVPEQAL
Measured quantity: pKi
A value of pKi is the negative decimal logarithm of a concentration given in moles per litre.

Problem: Form field: reported pKi of CCN(CC)CC1CCCCN1CC(=O)N1c2cc(Cl)ccc2C(=O)Nc2cccnc21 (racemic) [Substance K]
Result: 6.12
